These entries and their values trace back to ChEMBL document CHEMBL5107948.

- measured-target: Ubiquitin carboxyl-terminal hydrolase isozyme L3 (Homo sapiens)
- Sequence (P15374 whole entry): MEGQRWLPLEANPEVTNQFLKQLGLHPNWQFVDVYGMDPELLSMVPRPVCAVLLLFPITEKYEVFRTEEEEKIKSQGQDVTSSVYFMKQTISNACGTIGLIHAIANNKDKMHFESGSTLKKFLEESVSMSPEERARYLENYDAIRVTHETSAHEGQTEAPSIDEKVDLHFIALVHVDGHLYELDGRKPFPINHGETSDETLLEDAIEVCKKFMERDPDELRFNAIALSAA
- experiment-summary: Inhibition of GST-tagged recombinant UCHL3 (unknown origin) using Ub-Lys-TAMRA as substrate incubated for 30 mins by fluorescence polarization assay
pIC50: −log10 of the molar value.
attribute-measured: pIC50

Entry under review: `N#CN1CC[C@H](C(=O)Nc2ncc(-c3ccccc3)s2)C1` . Reported pIC50?
< 5.00

Entry to check: `C#Cc1ccc(-c2cnc(NC(=O)[C@H]3CCN(C#N)C3)s2)cc1`
< 5.00

* * *

- experiment-summary: Cytotoxicity against human HEK293 cells assessed as reduction in cell growth incubated for 72 hrs by live-cell time-lapse imaging
- Assay type: toxicity, cell-based
Kindly state EC50 at 72 h for each of the entries shown.
The figure you give is taken to be in nM; do not add the unit.

Consider the compound `C#Cc1ccc(-c2cnc(NC(=O)[C@H]3CCN(C#N)C3)s2)cc1` and give its measured EC50 at 72 h.
350

Same read-out for `N#CN1CC[C@H](C(=O)Nc2ncc(-c3ccccc3)s2)C1` ?
730
